- Tested on: MV4-11
- Method Description: Antiproliferative activity against human MV4-11 cells assessed as growth inhibition after 72 hrs by CCK-8 assay
- Assay type: functional
- Condition Notes: MV4-11, 72 h
Below, each entry is listed alongside its reported GI50.
Reply with just the number (in µM).

# example entries with known answers
- Smiles Repr: "CC(=O)c1ccc(NC(=O)N2CCN(c3ccnc(Nc4ccc(N5CCSCC5)cc4)n3)CC2)cc1"
  Study System: "MV4-11"
  Experimental Endpoint: "GI50"
  Experimental Result: 17.8
- Smiles Repr: "C1=N/C2=N/c3ccc(OCCN4CCCC4)c(c3)COC/C=C/COCc3cccc(c3)C(=C1)N2"
  Study System: "MV4-11"
  Experimental Endpoint: "GI50"
  Experimental Result: 1.6

Prompt line: Which GI50 reading was recorded for the molecule "CC(=O)c1ccc(NC(=O)N2CCN(c3ccnc(Nc4ccc(OCCCN5CCCC5)cc4)n3)CC2)cc1" ?
Response line: 11
